These measurements were taken from PubChem BioAssay (NCI).

system: MALME-3M melanoma; test: NCI-60 one-dose screen, 48 h; details: 10 µM unless noted
About 83,000 compounds went through this panel and 20% of them were active in at least one assay; those are over-represented in the sample as a whole. Activity calls are given as the source filed them. The calls were made as follows: active = growth percent below 10; inactive = the rest.
Answer with one of the outcomes active, inactive

These recorded examples may help you get a feel for the data.
- compound: "Cc1c(NCC(=O)Nc2nc3ccccc3[nH]2)c(=O)n(-c2ccccc2)n1C"
  classAssignment: "inactive"
- compound: "COC(=O)c1c2c(c(C)[n+]([O-])c1C)C(=O)C=C(NCc1ccc(Cl)cc1)C2=O"
  classAssignment: "active"
- compound: "COc1ccc(-c2nc3sc(C)nn3c2-c2nc3cc(C)c(C)cc3[nH]2)cc1"
  classAssignment: "inactive"
- compound: "C=CC(=O)N1CC2(CCC(n3nc(-c4ccc(Oc5ccccc5)cc4)c4c(N)ncnc43)CC2)C1"
  classAssignment: "active"
- compound: "Brc1ccc(Br)nn1"
  classAssignment: "active"
- compound: "Cc1ccc(S(=O)(=O)N2CCc3ccc(O)c4c3C2Cc2ccc3c(c2-4)OCO3)cc1 (stereo unspecified)"
  classAssignment: "inactive"
- compound: "Clc1ccc(C2=NN(c3ccccc3)[C@H](c3cn(-c4ccccc4)nc3-c3ccccc3)C2)cc1"
  classAssignment: "inactive"
- compound: "COc1cc(/C=C2\\C(=O)Nc3ccccc32)cc(OC)c1O"
  classAssignment: "inactive"

**Q:** Tell me the recorded outcome of this test for "c1ccc2cc(Cn3c(-c4ccc5ccccc5c4)[n+](Cc4ccc5ccccc5c4)c4ccccc43)ccc2c1" .
**A:** active

**Q:** Fill in: this test's call for CC1SC(c2cccc(Oc3ccccc3)c2)N(CCc2cccs2)C1=O (stereo unspecified) is ___
**A:** active

**Q:** Would you mind telling me which call this test gave "CC(=O)Nc1ccccc1-c1n[nH]c(=O)[nH]c1=O" ?
**A:** inactive

**Q:** Hello, I am checking results. What call was entered for "O=[N+]([O-])c1ccc(C=C2C(Cl)=C(Cl)C(Cl)=C2Cl)cc1" ?
**A:** inactive

**Q:** What did this assay record as the result for "CCCCC/C=C\C/C=C/CCCCCCCCNC(=O)Nc1ccc([N+](=O)[O-])cc1" ?
**A:** inactive

**Q:** Recorded test outcome, item "CCCN1CCN(c2ccc3nc(-c4ccc5nc(-c6ccc(C(F)(F)F)cc6)[nH]c5c4)[nH]c3c2)CC1"
**A:** active

**Q:** // param item: "FC(F)(F)c1ccc2c(c1)n1cnnc1c1nncn21" ; yields the recorded call
**A:** inactive

**Q:** Write down the call the test reported for this compound. Item: "CCCCCCCCCCCCCCn1c2ccccc2c2c3c(c4c5cc(OC)ccc5oc4c21)C(=O)NC3=O"
**A:** inactive

**Q:** Kindly provide the recorded test outcome for the following compound: "CC(C)(C)CC(C)(C)N(CSc1ccc(Cl)cc1)CSc1ccc(Cl)cc1"
**A:** inactive

**Q:** Hello, I am checking results. What call was entered for "Nc1cc(Br)c(-c2nnc(CCC(=O)c3nc4ccccc4[nH]3)o2)c(Br)c1" ?
**A:** inactive

**Q:** # outcome recorded in this test, key = "Cc1cc(C)c(S(=O)O)c(C)c1"
**A:** inactive

**Q:** For "Cc1ccc2nc(NC(=O)CSC(=S)N3CCN(C)CC3)sc2c1" , which call appears in the assay record?
**A:** inactive

**Q:** Call for entry "COc1cc(Cn2cc(F)c(=O)[nH]c2=O)cc(OC)c1" :
**A:** inactive

----------
system: ACHN renal; test: NCI-60 one-dose screen, 48 h; details: 10 µM unless noted
The panel holds about 83,000 compounds, 20% with a hit somewhere; the sample as a whole holds those more often. Active and inactive are the calls of the source. The calls were made as follows: active = growth percent below 10; inactive = the rest.
Your reply should match one of these outcome classes. active, inactive

Here's what some known entries look like.
- compound: "COC(=O)c1c2c(c(C)[n+]([O-])c1C)C(=O)C=C(NCc1cccc(Cl)c1)C2=O"
  classAssignment: "active"
- compound: "O=C(C[Si](CC(=O)c1cccc(C(F)(F)F)c1)CC(=O)c1cccc(C(F)(F)F)c1)c1cccc(C(F)(F)F)c1"
  classAssignment: "inactive"
- compound: "Cc1cc(=O)oc2c1ccc1oc(C(=O)c3ccccc3)c(C)c12"
  classAssignment: "inactive"

**Q:** Record lookup: outcome of this test for "O=c1[nH]c(=O)n(Cc2ccc(F)cc2)cc1F" ?
**A:** inactive

**Q:** What outcome does the record of this test show for Cc1ccc(S(=O)(=O)N2CCc3ccc(O)c4c3C2Cc2ccc3c(c2-4)OCO3)cc1 (stereo not given) ?
**A:** inactive

**Q:** Outcome logged for O=C(N/N=C/c1ccc2c(c1)OCO2)c1cnn2c1NC(c1ccccc1)C2 (stereo not given) in this assay:
**A:** inactive

**Q:** Hi, do you know how "COc1cc2nc(SCc3cc(OC)c(OC)c(OC)c3)n(-c3ccccc3OC)c(=O)c2cc1OC" came out in this test?
**A:** inactive

**Q:** Record lookup: outcome of this test for "CCN(CC)c1ccc2c(c1)OS(=O)(=O)N=C2" ?
**A:** inactive

**Q:** Record lookup: outcome of this test for CC1(C)CC(=O)C2=C(C1)Nc1cc3c(cc1C2c1ccc(F)cc1)OCO3 (stereo not given) ?
**A:** inactive

**Q:** Hey, what did the test say about COc1ccc(/C=N/NC(=O)c2cnn3c2NC(c2ccccc2)C3)cc1OC1CCCC1 (stereo not given) ?
**A:** inactive

----------
system: MOLT-4 leukemia; assay: NCI-60 one-dose screen, 48 h; settings: 10 µM unless noted
This is part of a sample that, as a whole, favours compounds with a hit. Of some 83,000 tested, about 20% had one in any assay. Activity calls are given as the source filed them. Rule for the calls: active = growth percent below 10; inactive = the rest.
Your response should consist of one outcome taken from 1 = active, 0 = inactive

Observe how each entry below is paired with its result.
- smilesText: "CCN1CCN(c2nc3ccccc3c3c(=O)c4cc(F)ccc4sc23)CC1"
  classAssignment: 0
- smilesText: "COc1ccc(-c2cc(=O)oc3c4c(ccc23)OCN(Cc2ccc(F)cc2)C4)cc1"
  classAssignment: 0
- smilesText: "COc1cc(-c2nc(SC(C)C)nc(Nc3cccc(C)c3)c2C#N)cc(OC)c1OC"
  classAssignment: 0
- smilesText: "N#Cc1ccc(C(F)(F)F)nc1N1CCC(C(=O)Nc2ccc(Cl)cc2)CC1"
  classAssignment: 0
- smilesText: "COc1ccc(OC)c2ncccc12"
  classAssignment: 0

**Q:** Returns: the outcome recorded for "Cn1c(=O)c2c(-c3ccccc3F)n(-c3ccc4c(c3)OCO4)cc2n(C)c1=O" in this assay.
**A:** 0

**Q:** Tell me the assay call for "COc1cccc2c(=O)c3c(sc12)c(NCCN(C)C)nc1ccccc13" please.
**A:** 1

**Q:** What outcome does the record of this test show for "COC(=O)CCC(=O)c1ccccc1" ?
**A:** 0

----------
test system: RXF 393 renal; assay: NCI-60 one-dose screen, 48 h; conditions: 10 µM unless noted
Compounds without any hit were thinned out: in the full panel of roughly 83,000, 20% have a hit. The source made the active and inactive calls. The calls were made as follows: active = growth percent below 10; inactive = the rest.
Write down one outcome, taken from active, inactive

These solved cases illustrate the format of a correct answer.
- compound: "CCCCCCCCCCCC(=O)[O][Sn]([CH2]CCC)([CH2]CCC)[CH2]CCC"
  targetEntity: "RXF 393 renal"
  classAssignment: "active"
- compound: "Clc1cccc(Cl)c1Nc1ccc2nnc(-c3ccncc3)n2n1"
  targetEntity: "RXF 393 renal"
  classAssignment: "inactive"
- compound: "Cc1ccc(S(=O)(=O)c2ccc3[nH]c(=O)[nH]c(=O)c3c2)cc1"
  targetEntity: "RXF 393 renal"
  classAssignment: "inactive"
- compound: "Cc1ccc(N(CSc2ccc(Cl)cc2)CSc2ccc(Cl)cc2)cc1"
  targetEntity: "RXF 393 renal"
  classAssignment: "inactive"
- compound: "COc1cccc(OC)c1OC(=O)c1ccccc1"
  targetEntity: "RXF 393 renal"
  classAssignment: "inactive"

**Q:** GET /call?item= O=C(c1cnn2c1NC(c1ccc(F)cc1)C2)N1CCCCC1 (stereo unspecified) returns the recorded outcome of this test.
**A:** inactive

**Q:** Could you check what this test reported for "O=C(CCc1nnc2sc(-c3ccccc3)nn12)c1nc2ccccc2[nH]1" ?
**A:** inactive

**Q:** For this compound, state the assay outcome: "O=C1NC(=S)S/C1=C\c1cccc([N+](=O)[O-])c1"
**A:** inactive

**Q:** How did this test come out for "O=C(O)c1ccccc1Oc1cc(-c2ccco2)nc(OCCBr)n1" ?
**A:** inactive

**Q:** Write down the call the test reported for this compound. Item: O=C1NC(=O)C(CSc2ccccc2)(c2ccccc2)N1 (stereo unspecified)
**A:** inactive

**Q:** Recorded test call requested for "Cc1nn(-c2ccccc2)c2nc3nc4c(c(N)c3c(-c3ccc(Cl)cc3)c12)CCC4"
**A:** inactive

**Q:** Please indicate how the test categorized "COc1cc2oc(-c3ccc(O)cc3)cc(=O)c2c(O)c1I" .
**A:** inactive
